Protein target, amino acids: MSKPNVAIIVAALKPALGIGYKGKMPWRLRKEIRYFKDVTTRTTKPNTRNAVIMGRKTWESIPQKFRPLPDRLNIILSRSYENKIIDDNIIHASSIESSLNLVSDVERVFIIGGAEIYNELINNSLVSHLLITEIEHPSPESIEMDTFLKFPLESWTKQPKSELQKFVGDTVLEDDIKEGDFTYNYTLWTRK
Outcome Measure: pIC50
// field semantics: pIC50 = negative decimal log of concentration (mol/L)

CCc1nc(N)nc(N)c1C#CC(C)c1cc(OC)cc(-c2cccc3cnccc23)c1 (centres undefined): 7.77
CCc1nc(N)nc(N)c1C#CC(C)c1cc(OC)cc(-c2ccncc2)c1 (centres undefined): 7.22
CCc1nc(N)nc(N)c1C#CC(C)c1cc(OC)cc(-c2ccc3c(c2)OCCO3)c1 (centres undefined): 7.64

Let us examine a further case.
Which measured pIC50 value corresponds to CCc1nc(N)nc(N)c1C#CCc1cc(OC)cc(-c2ccc3c(c2)OCCO3)c1 ?
7.11
